experiment: in vivo; details: male, BALB/c, mouse, in vivo, iv, 2 mg/kg, VdSS
Experimental readout: Vd (L/kg)
Respond numerically; units are L/kg and should not be typed.

**Q:** If you can, please state the reported Vd value of COc1cccc2c1C(=O)c1c(O)c3c(c(O)c1C2=O)C[C@@](O)(C(=O)CO)C[C@@H]3O[C@H]1C[C@H](N)[C@H](O)[C@H](C)O1 [Doxorubicin, reference compound] .
**A:** 105

---

assay: in vivo; conditions: male, BALB/c, mouse, in vivo, iv, 5 mg/kg, AUC0-t
Experimental readout: AUC(0-t) (ng·h/mL)
Record the value in ng·h/mL, omitting the unit from your answer.

**Q:** Name the recorded AUC(0-t) for CC(=O)O[C@H]1C(=O)[C@@]2(C)[C@H]([C@H](OC(=O)c3ccccc3)[C@]3(O)C[C@H](OC(=O)[C@H](O)[C@@H](NC(=O)c4ccccc4)c4ccccc4)C(C)=C1C3(C)C)[C@]1(OC(C)=O)CO[C@@H]1C[C@@H]2O [Paclitaxel, reference compound] .
**A:** 2500

---

experiment: in vivo; conditions: male, Sprague-Dawley, rat, iv, 5 mg/kg, AUC0-inf
Experimental readout: AUC(0-inf) (ng·h/mL)
All answers are understood in ng·h/mL, so give the number only.

**Q:** Would you mind telling me what AUC(0-inf) value was observed for CC(=O)O[C@H]1C(=O)[C@@]2(C)[C@H]([C@H](OC(=O)c3ccccc3)[C@]3(O)C[C@H](OC(=O)[C@H](O)[C@@H](NC(=O)c4ccccc4)c4ccccc4)C(C)=C1C3(C)C)[C@]1(OC(C)=O)CO[C@@H]1C[C@@H]2O [Paclitaxel, reference compound] ?
**A:** 4610

---

Molecular target: CYP1A2 (Homo sapiens)
Sequence (P05177 1-516): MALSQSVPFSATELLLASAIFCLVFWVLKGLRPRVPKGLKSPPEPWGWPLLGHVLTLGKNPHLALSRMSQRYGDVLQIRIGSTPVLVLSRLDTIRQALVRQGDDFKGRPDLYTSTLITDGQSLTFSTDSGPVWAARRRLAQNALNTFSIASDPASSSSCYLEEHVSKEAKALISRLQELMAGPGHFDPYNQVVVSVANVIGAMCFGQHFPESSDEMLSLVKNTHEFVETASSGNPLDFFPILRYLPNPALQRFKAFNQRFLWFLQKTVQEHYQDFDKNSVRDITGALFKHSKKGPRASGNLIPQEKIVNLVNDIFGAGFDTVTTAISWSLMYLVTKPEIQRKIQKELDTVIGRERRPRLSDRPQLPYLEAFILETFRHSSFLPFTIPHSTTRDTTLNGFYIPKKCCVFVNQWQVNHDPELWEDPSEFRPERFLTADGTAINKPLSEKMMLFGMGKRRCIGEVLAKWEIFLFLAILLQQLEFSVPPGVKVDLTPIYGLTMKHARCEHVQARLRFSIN
Experimental readout: IC50

**Q:** Lab note: need IC50 for COc1ccc(-c2cc(C(O)C3CCCCN3)c3ccccc3n2)cc1 (stereo not shown) [NSC23925b] on CYP1A2 (Homo sapiens), anyone have it?
**A:** > 10 µM

---

Assay: in vivo
Conditions: male, BALB/c, mouse, in vivo, iv, 2.5 mg/kg, AUC0-inf
Procedure: After dosing, blood samples were collected at different time points for each group. […] Three animals were used for each time point. […] The target and actual time of blood sampling were recorded relative to the time of dosing. […] The plasma was protected from light and stored at −80 °C until analyzed by liquid chromatography-mass spectrometry/mass spectrometry (LC-MS/MS) for quantification. […]
Experimental readout: AUC(0-inf)
Returns: string containing the number followed by the unit.

**Q:** Which AUC(0-inf) is listed for COc1ccc(-c2cc(C(O)C3CCCCN3)c3ccccc3n2)cc1 (stereo not shown) [NSC23925b] ?
**A:** 1700 ng·h/mL

---

experiment: in vivo; details: male, Sprague-Dawley, rat, ip, 5 mg/kg
Experimental readout: Cmax
State the value, then name its unit.

**Q:** Consider the molecule COc1ccc(-c2cc(C(O)C3CCCCN3)c3ccccc3n2)cc1 (stereo not shown) [NSC23925b] and give its measured Cmax.
**A:** 128 ng/mL

---

assay: in vivo; conditions: male, Sprague-Dawley, rat, iv, 2.5 mg/kg, AUC0-t
Experimental readout: AUC(0-t) (µg·h/mL)
Give the number; µg·h/mL is assumed, so skip it.

**Q:** Sample COc1ccc(-c2cc(C(O)C3CCCCN3)c3ccccc3n2)cc1 (stereo not shown) [NSC23925b] — what was its AUC(0-t)?
**A:** 0.766

---

assay: in vivo; conditions: male, Sprague-Dawley, rat, iv, 1 mg/kg, AUC0-inf
Experimental readout: AUC(0-inf) (ng·h/mL)
Lab book: enter the figure in ng·h/mL, no units written.

**Q:** // lookup AUC(0-inf) for COc1cccc2c1C(=O)c1c(O)c3c(c(O)c1C2=O)C[C@@](O)(C(=O)CO)C[C@@H]3O[C@H]1C[C@H](N)[C@H](O)[C@H](C)O1 [Doxorubicin, reference compound]
**A:** 117

---

Experiment: in vivo
Settings: male, BALB/c, mouse, in vivo, iv, 5 mg/kg, Kel
Method: After dosing, blood samples were collected at different time points for each group. […] Three animals were used for each time point. […] The target and actual time of blood sampling were recorded relative to the time of dosing. […] The plasma was protected from light and stored at −80 °C until analyzed by liquid chromatography-mass spectrometry/mass spectrometry (LC-MS/MS) for quantification. […]
Experimental readout: k el (s⁻¹)
All answers are understood in s⁻¹, so give the number only.

**Q:** Form field: reported k el of CC(=O)O[C@H]1C(=O)[C@@]2(C)[C@H]([C@H](OC(=O)c3ccccc3)[C@]3(O)C[C@H](OC(=O)[C@H](O)[C@@H](NC(=O)c4ccccc4)c4ccccc4)C(C)=C1C3(C)C)[C@]1(OC(C)=O)CO[C@@H]1C[C@@H]2O [Paclitaxel, reference compound]
**A:** 0.000149

---

test: in vivo; settings: male, BALB/c, mouse, in vivo, ip, 5 mg/kg, AUC0-inf
Experimental readout: AUC(0-inf) (ng·h/mL)
Give the quantity in ng·h/mL, number only.

**Q:** Param item = COc1ccc(-c2cc(C(O)C3CCCCN3)c3ccccc3n2)cc1 (stereo not shown) [NSC23925b] ; retrieve measured AUC(0-inf).
**A:** 3980

---

assay: in vivo; settings: male, BALB/c, mouse, in vivo, ip, 5 mg/kg, t1/2
Experimental readout: half-life (h)
Give the value in h but do not write h after it.

**Q:** Need half-life of COc1ccc(-c2cc(C(O)C3CCCCN3)c3ccccc3n2)cc1 (stereo not shown) [NSC23925b] , thanks.
**A:** 8.69

---

experiment: in vivo; details: male, Sprague-Dawley, rat, iv, 2.5 mg/kg, Kel
Experimental readout: k el (s⁻¹)
Only the number, expressed in s⁻¹, is required.

**Q:** Data request, read-out k el, for COc1ccc(-c2cc(C(O)C3CCCCN3)c3ccccc3n2)cc1 (stereo not shown) [NSC23925b]
**A:** 2.18e-05

---

assay: Plasma pharmacokinetics after single I.P./I.V. dose in male Sprague-Dawley rats (LC-MS/MS); conditions: male, Sprague-Dawley, rat, plasma, iv, 1 mg/kg, Kel, SD rats; doxorubicin I.V. 1.00 mg/kg alone
Experimental readout: k el (s⁻¹)
Numeric only. Scale: s⁻¹

**Q:** Requested field: k el. Item: COc1cccc2c1C(=O)c1c(O)c3c(c(O)c1C2=O)C[C@@](O)(C(=O)CO)C[C@@H]3O[C@H]1C[C@H](N)[C@H](O)[C@H](C)O1 [Doxorubicin, reference compound]
**A:** 1.93e-05

---

assay: in vivo; conditions: male, BALB/c, mouse, in vivo, iv, 2.5 mg/kg, VdSS
Experimental readout: Vd (L/kg)
Value expressed in L/kg; do not type the unit.

**Q:** Returns the measured Vd for the input compound. Input: COc1ccc(-c2cc(C(O)C3CCCCN3)c3ccccc3n2)cc1 (stereo not shown) [NSC23925b]
**A:** 10.3

---

Test: Plasma pharmacokinetics after single I.P./I.V. dose in male BALB/c mice (LC-MS/MS)
Details: male, BALB/c, mouse, plasma, iv, 2 mg/kg, Kel, BALB/c mice; doxorubicin I.V. 2.00 mg/kg alone
Protocol: After dosing, blood samples were collected at different time points for each group. […] Three animals were used for each time point. […] The target and actual time of blood sampling were recorded relative to the time of dosing. […] The plasma was protected from light and stored at −80 °C until analyzed by liquid chromatography-mass spectrometry/mass spectrometry (LC-MS/MS) for quantification. […]
Experimental readout: k el (s⁻¹)
# value in s⁻¹; strip the unit string

**Q:** Value lookup for k el; key = COc1cccc2c1C(=O)c1c(O)c3c(c(O)c1C2=O)C[C@@](O)(C(=O)CO)C[C@@H]3O[C@H]1C[C@H](N)[C@H](O)[C@H](C)O1 [Doxorubicin, reference compound]
**A:** 1.89e-05
